System: Hepatitis C virus subtype 3a
Assay: Inhibition of NS5A in HCV genotype 3a assessed as reduction in replicon RNA level after 3 days by cell based RT-PCR method
Answer each item with its documented EC90.
One number for each entry, in nM.

# count of solved cases: 2
{"columns": ["molecule", "reported-value"],
 "data": [
  ["COC(=O)N[C@H](C(=O)N1[C@@H]2CC(F)(F)[C@@H]2C[C@H]1c1ncc(-c2cc(F)c3c(c2)OC(c2cccc(OC)c2)n2c-3cc3cc(-c4cnc([C@@H]5C[C@@H]6[C@@H](CC6(F)F)N5C(=O)[C@@H](NC(=O)OC)C(C)C)[nH]4)ccc32)[nH]1)C(C)C (some centres undefined)", 0.29],
  ["COC(=O)N[C@H](C(=O)N1C[C@@H](OC)C[C@H]1c1ncc(-c2cc(F)c3c(c2)OC(c2cccc(OC)c2)n2c-3cc3cc(-c4cnc([C@@H]5C[C@H](OC)CN5C(=O)[C@@H](NC(=O)OC)C(C)C)[nH]4)ccc32)[nH]1)C(C)C (some centres undefined)", 0.71]
]}

Required: EC90, one value per molecule below.
1. COC(=O)N[C@H](C(=O)N1CCC[C@H]1c1ncc(-c2cc(F)c3c(c2)OC(c2cccc(OC)c2)n2c-3cc3cc(-c4cnc([C@@H]5C[C@H]6C[C@H]6N5C(=O)[C@@H](NC(=O)OC)C(C)C)[nH]4)ccc32)[nH]1)C(C)C (some centres undefined)
2. COC(=O)N[C@H](C(=O)N1C[C@H](OC)C[C@H]1c1ncc(-c2cc(F)c3c(c2)OC(c2cccc(OC)c2)n2c-3cc3cc(-c4cnc([C@@H]5C[C@@H](OC)CN5C(=O)[C@@H](NC(=O)OC)C(C)C)[nH]4)ccc32)[nH]1)C(C)C (some centres undefined)

Output line:
[0.15, 5.52]

----------
System: Nonstructural protein 5A (Hepatitis C virus), Q5L478 [Y93H]
Sequence (whole entry): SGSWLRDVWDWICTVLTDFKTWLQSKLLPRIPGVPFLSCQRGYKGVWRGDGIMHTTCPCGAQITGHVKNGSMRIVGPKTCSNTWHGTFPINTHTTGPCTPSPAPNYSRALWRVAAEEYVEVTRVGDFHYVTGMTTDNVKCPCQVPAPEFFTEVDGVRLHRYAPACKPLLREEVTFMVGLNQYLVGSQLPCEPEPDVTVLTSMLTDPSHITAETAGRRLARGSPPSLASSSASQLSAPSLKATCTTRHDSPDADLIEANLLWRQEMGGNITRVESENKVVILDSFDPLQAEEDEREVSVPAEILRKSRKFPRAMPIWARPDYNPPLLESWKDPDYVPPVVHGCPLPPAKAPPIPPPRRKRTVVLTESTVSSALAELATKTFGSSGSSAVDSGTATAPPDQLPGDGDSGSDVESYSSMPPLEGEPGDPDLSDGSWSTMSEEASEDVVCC
Assay: Inhibition of NS5A Y93H mutant in HCV genotype 1a assessed as reduction in replicon RNA level after 3 days by cell based RT-PCR method
Conditions: Hepatitis C virus subtype 1a
What EC90 was measured for each of the following?
Give bare numbers, in nM.

{"columns": ["compound", "EC90, nM"],
 "data": [
  ["COC(=O)N[C@H](C(=O)N1CCC[C@H]1c1ncc(-c2cc(F)c3c(c2)OC(c2cccc(OC)c2)n2c-3cc3cc(-c4cnc([C@@H]5C[C@@H](F)CN5C(=O)[C@@H](NC(=O)OC)C(C)C)[nH]4)ccc32)[nH]1)C(C)C (stereo not given in full)", 1.81],
  ["COC(=O)N[C@H](C(=O)N1C[C@H](F)C[C@H]1c1ncc(-c2cc(F)c3c(c2)OC(c2cccc(OC)c2)n2c-3cc3cc(-c4cnc([C@@H]5C[Si](C)(C)CN5C(=O)[C@@H](NC(=O)OC)C(C)C)[nH]4)ccc32)[nH]1)C(C)C (stereo not given in full)", 91.4],
  ["COC(=O)N[C@H](C(=O)N1[C@@H]2CC(F)(F)[C@@H]2C[C@H]1c1ncc(-c2cc(F)c3c(c2)OC(c2cccc(OC)c2)n2c-3cc3cc(-c4cnc([C@@H]5C[C@@H]6[C@@H](CC6(F)F)N5C(=O)[C@@H](NC(=O)OC)C(C)C)[nH]4)ccc32)[nH]1)C(C)C (stereo not given in full)", 52.6],
  ["COC(=O)N[C@H](C(=O)N1C[C@H](OC)C[C@H]1c1ncc(-c2cc(F)c3c(c2)OC(c2cccc(OC)c2)n2c-3cc3cc(-c4cnc([C@@H]5C[C@@H](OC)CN5C(=O)[C@@H](NC(=O)OC)C(C)C)[nH]4)ccc32)[nH]1)C(C)C (stereo not given in full)", 0.79],
  ["COC(=O)N[C@H](C(=O)N1CCC[C@H]1c1ncc(-c2ccc3c(c2)cc2n3C(c3cccc(OC)c3)Oc3cc(-c4cnc([C@@H]5C[C@H]6C[C@H]6N5C(=O)[C@@H](NC(=O)OC)C(C)C)[nH]4)cc(F)c3-2)[nH]1)C(C)C (stereo not given in full)", 10.9],
  ["COC(=O)N[C@H](C(=O)N1CCC[C@H]1c1ncc(-c2ccc3c(c2)OC(c2cccc(OC)c2)n2c-3cc3cc(-c4cnc([C@@H]5C[C@H]6C[C@H]6N5C(=O)[C@@H](NC(=O)OC)C(C)C)[nH]4)ccc32)[nH]1)C(C)C (stereo not given in full)", 6.45]
]}

Consider the following items and state reported EC90 for each.
1. COC(=O)N[C@H](C(=O)N1C(C)CC[C@H]1c1ncc(-c2ccc3c(c2)OC(c2ccccc2)n2c-3cc3cc(-c4cnc([C@@H]5CCC(C)N5C(=O)[C@@H](NC(=O)OC)C(C)C)[nH]4)ccc32)[nH]1)C(C)C (single isomer, unassigned; diastereomer B)
2. COC(=O)N[C@H](C(=O)N1CC2(CC2)C[C@H]1c1ncc(-c2cc(F)c3c(c2)OC(c2cccc(OC)c2)n2c-3cc3cc(-c4cnc([C@@H]5CC6(CC6)CN5C(=O)[C@@H](NC(=O)OC)C(C)C)[nH]4)ccc32)[nH]1)C(C)C (stereo not given in full)
3. COC(=O)N[C@H](C(=O)N1C(C)CC[C@H]1c1ncc(-c2ccc3c(c2)OC(c2ccccc2)n2c-3cc3cc(-c4cnc([C@@H]5CCC(C)N5C(=O)[C@@H](NC(=O)OC)C(C)C)[nH]4)ccc32)[nH]1)C(C)C (single isomer, unassigned; diastereomer A)
4. COC(=O)N[C@H](C(=O)N1CC[C@H](OC)[C@H]1c1ncc(-c2cc(F)c3c(c2)OC(c2cccc(OC)c2)n2c-3cc3cc(-c4cnc([C@@H]5[C@@H](OC)CCN5C(=O)[C@@H](NC(=O)OC)C(C)C)[nH]4)ccc32)[nH]1)C(C)C (stereo not given in full)

Output line:
1: 158; 2: 23.7; 3: 64; 4: 3.86

This collection of values is drawn from ChEMBL document CHEMBL3853354.
